studyTarget: Enoyl-[acyl-carrier-protein] reductase [NADH] (Mycobacterium tuberculosis)
testDetails: Inhibition of Mycobacterium tuberculosis InhA
testSettings: read-out: IC50

[
  {
    "itemSmiles": "CC(C)(C)OC(=O)Nc1ccc(I)cc1C(=O)O",
    "IC50": "280 µM"
  },
  {
    "itemSmiles": "O=C(Nc1ccc(I)cc1C(=O)O)c1ccc(Cl)c(Cl)c1",
    "IC50": "38 µM"
  }
]

====

studyTarget: Enoyl-[acyl-carrier-protein] reductase [NADH] (Mycobacterium tuberculosis)
testDetails: Binding affinity to Mycobacterium tuberculosis InhA assessed as dissociation constant
Parameter Kd: see the listing below.
measuredParameter: Kd (µM)

[
  {
    "compound": "Cc1cc(N)n(Cc2nnc(Nc3ccn(Cc4c(F)cccc4Cl)n3)s2)n1",
    "studyTarget": "Enoyl-[acyl-carrier-protein] reductase [NADH] (Mycobacterium tuberculosis)",
    "valueUnit": "µM",
    "resultNumber": 7.1
  },
  {
    "compound": "Cc1ccn(C(C)c2nnc(Nc3ccn(Cc4c(F)cccc4Cl)n3)s2)n1 (stereo not given)",
    "studyTarget": "Enoyl-[acyl-carrier-protein] reductase [NADH] (Mycobacterium tuberculosis)",
    "valueUnit": "µM",
    "resultNumber": 6.3
  },
  {
    "compound": "Cc1cc(N)n(Cc2ccc(C(=O)NCc3ccc(F)cc3Cl)cc2)n1",
    "studyTarget": "Enoyl-[acyl-carrier-protein] reductase [NADH] (Mycobacterium tuberculosis)",
    "valueUnit": "µM",
    "resultNumber": 8
  },
  {
    "compound": "Cc1cncc(CNC(=O)NC2CCN(c3ncccn3)CC2)c1",
    "studyTarget": "Enoyl-[acyl-carrier-protein] reductase [NADH] (Mycobacterium tuberculosis)",
    "valueUnit": "µM",
    "resultNumber": 4.7
  },
  {
    "compound": "Cc1cc(N)n(Cc2ccccc2)n1",
    "studyTarget": "Enoyl-[acyl-carrier-protein] reductase [NADH] (Mycobacterium tuberculosis)",
    "valueUnit": "µM",
    "resultNumber": 3.3
  }
]

====

compounds and their reported IC50
studyTarget: UniProt P9WGR1
Sequence (P9WGR1 whole entry): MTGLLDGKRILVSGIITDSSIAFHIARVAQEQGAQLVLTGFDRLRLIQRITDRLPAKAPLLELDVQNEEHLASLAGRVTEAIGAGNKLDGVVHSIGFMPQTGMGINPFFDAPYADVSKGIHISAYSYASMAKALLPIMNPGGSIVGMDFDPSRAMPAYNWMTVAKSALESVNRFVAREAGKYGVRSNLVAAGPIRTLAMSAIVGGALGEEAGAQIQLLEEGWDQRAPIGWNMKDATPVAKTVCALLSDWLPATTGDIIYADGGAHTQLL
testDetails: Inhibition of Mycobacterium tuberculosis InhA
testSettings: read-out: pIC50 (converted)

[
  {
    "itemSmiles": "CC(=O)NC1CCN(c2ncccn2)CC1",
    "IC50": "> 1 mM"
  },
  {
    "itemSmiles": "CCNc1nnc(Cn2nc(C)cc2C)s1",
    "IC50": "> 1 mM"
  },
  {
    "itemSmiles": "CC1(C)CCC(Cc2cc(O)c(-c3ccccc3)c(=O)[nH]2)CC1",
    "IC50": "0.01 mM"
  },
  {
    "itemSmiles": "O=C(NCc1cccnc1)NC1CCCCC1",
    "IC50": "> 1 mM"
  }
]

====

studyTarget: HTH-type transcriptional regulator EthR (Mycobacterium tuberculosis)
Sequence (P9WMC1 whole entry): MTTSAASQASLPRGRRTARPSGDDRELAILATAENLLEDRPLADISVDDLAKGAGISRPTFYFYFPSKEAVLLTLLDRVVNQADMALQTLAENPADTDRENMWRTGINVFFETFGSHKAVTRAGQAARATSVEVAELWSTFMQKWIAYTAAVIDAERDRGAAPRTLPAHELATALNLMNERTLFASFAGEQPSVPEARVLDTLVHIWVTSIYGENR
Here, each record is paired with measured IC50 data.
measuredParameter: IC50 (µM)

[
  {
    "compound": "CNCc1ccc(N2CCCCC2)cc1",
    "measuredParameter": "IC50",
    "valueUnit": "µM",
    "limitQualifier": ">",
    "resultNumber": 100
  },
  {
    "compound": "COc1ccc(CCC(=O)N2CCC(SS[C@@H]3CCN(C(=O)CCc4ccc(OC)cc4)C3)C2)cc1 (some centres not stated)",
    "measuredParameter": "IC50",
    "valueUnit": "µM",
    "limitQualifier": "=",
    "resultNumber": 1.1
  }
]
